# SYSTEM_TESTED: HLA-B*57:01
# EXPERIMENTAL_PROTOCOL: IEDB peptide-MHC binding, purified MHC/competitive/fluorescence; filed as Kd, often an IC50 or EC50 that approximates it; bounds were set here for any values at or beyond the usual limits of such assays
# CONDITION_INFO: source organism: Vibrio vulnificus YJ016
PROPERTY_MEASURED: pKd
Give bare numbers, as −log10 of the molar value.

Summary line: `VTFGARASF` , HLA-B*57:01, reported pKd = 7.01

###

# SYSTEM_TESTED: HLA-A*68:02
# EXPERIMENTAL_PROTOCOL: IEDB peptide-MHC binding, purified MHC/direct/fluorescence; filed as Kd, often an IC50 or EC50 that approximates it; bounds were set here for any values at or beyond the usual limits of such assays
# CONDITION_INFO: source organism: Influenza A virus (A/ruddy turnstone/Delaware/67/1998(H12N4))
PROPERTY_MEASURED: Kd

Briefly, Kd measured for `IVFMWAIHH` : ≥ 20 µM
